// provenance: patent US20260193326A1

# Target system: AAV9 (adeno-associated virus serotype 9)
# Assay: SPR, AAV on CM5 chip
Readout type: koff (s⁻¹)
Answer with a number only, understood to be in s⁻¹.

{"columns": ["Binder", "Measurement"],
 "data": [
  ["A4-C5 (bispecific antibody) VQLQESGGGLVQPGGSLRLSCAASGSNFRINTMGWYRQAPGKQRELVATVTRGGSTNYADSVKGRFTISRDNPKNTVYLQMNSLRPEDTAVYYCHVDEVRESSWTTSNLWGQGTQVTVSSGGGGSGGGGSGGGGSVQLQESGGGLVQPGGSLRLSCAASGSNFSINTMGWYRQAPGKQRELVATVTRGGDTNYADSVKGRFTISRDNAKNTVYLQMNSLRPEDTAVYYCHVDEIRESSWTTSNLWGQGTQVTVSSGGGGSGGGGSGGGGSVQLQESGGGLVQPGGSLRLSCAASGSNFRINTMGWYRQAPGKQRELVATVTRGGSTNYADSVKGRFTISRDNPKNTVYLQMNSLRPEDTAVYYCHVDEVRESSWTTSNLWGQGTQVTVSS", 0.0002]
]}

For A4-C1 (VHH) VQLQESGGGLVQPGGSLRLSCAASGSGFSINTMGWYRQAPGKQRELVATVTRDGSTNYADFVKGRFTISRDNAKNTVYLQMNSLRPEDTAVYYCHLDEVRESSWTTSNLWGQGTQVTVSSGGGGSGGGGSGGGGSVQLQESGGGLVQPGGSLRLSCAASGSGFSINTMGWYRQAPGKQRELVATVTRDGSTNYADFVKGRFTISRDNAKNTVYLQMNSLRPEDTAVYYCHLDEVRESSWTTSNLWGQGTQVTVSSGGGGSGGGGSGGGGSVQLQESGGGLVQPGGSLRLSCAASGSGFSINTMGWYRQAPGKQRELVATVTRDGSTNYADFVKGRFTISRDNAKNTVYLQMNSLRPEDTAVYYCHLDEVRESSWTTSNLWGQGTQVTVSS the binder record lists koff as 1e-05

For A4-C7 (bispecific antibody) VQLQESGGGLVQPGGSLRLSCAASGSNFSINTMGWYRQAPGKQRELVATVTRGGDTNYADSVKGRFTISRDNAKNTVYLQMNSLRPEDTAVYYCHVDEIRESSWTTSNLWGQGTQVTVSSGGGGSGGGGSGGGGSVQLQESGGGLVQPGGSLRLSCAASGSNFRINTMGWYRQAPGKQRELVAPVTRGGSTNYADSVKGRFTISRDNAKNTVYLQMNSLRPEDTAVYYCHVDEVRESSWTTSNLWGQGTQVTVSSGGGGSGGGGSGGGGSVQLQESGGGLVQPGGSLRLSCAASGSSFTINTMGWYRQAPGKQRELVAAVTRGGSTNYAGSVKGRFTISRDNAKNTIYLQMNSLRPEDTAVYYCHVDEIRQSSWTTSNLWGQGTQVTVSS the binder record lists koff as 1.75e-05

For A4-C6 (bispecific antibody) VQLQESGGGLVQPGGSLRLSCAASGSNFRINTMGWYRQAPGKQRELVAPVTRGGSTNYADSVKGRFTISRDNAKNTVYLQMNSLRPEDTAVYYCHVDEVRESSWTTSNLWGQGTQVTVSSGGGGSGGGGSGGGGSVQLQESGGGLVQPGGSLRLSCAASGSNFSINTMGWYRQAPGKQRELVAALTRGGSTNYADSVKGRFTISRDNAKNTVYLQMNSLRPEDTAVYYCHVDEVRESSWTTSNLWGQGTQVTVSSGGGGSGGGGSGGGGSVQLQESGGGLVQPGGSLRLSCAASGSNFSINTMGWYRQAPGKQRELVATVTRGGDTNYADSVKGRFTISRDNAKNTVYLQMNSLRPEDTAVYYCHVDEIRESSWTTSNLWGQGTQVTVSS the binder record lists koff as 2.5e-05

For A4-C4 (bispecific antibody) VQLQESGGGLVQAGGSLRLSCAASGSRFSINTMGWYRQAPGKQREFVATVTRGGNTNYAESVKGRFTISRDNAKNTVYLQMNSLRPEDTAVYYCHVDEVRDSSWTTSNIWGQGTQVTVSSGGGGSGGGGSGGGGSVQLQESGGGLVQAGGSLRLSCAASGSRFSINTMGWYRQAPGKQREFVATVTRGGNTNYAESVKGRFTISRDNAKNTVYLQMNSLRPEDTAVYYCHVDEVRDSSWTTSNIWGQGTQVTVSSGGGGSGGGGSGGGGSVQLQESGGGLVQPGGSLRLSCAASGSNFRINTMGWYRQAPGKQRELVATVTRGGSTNYADSVKGRFTISRDNPKDTVYLQMNSLRPEDTAVYYCHVDEVRESSWTTSNLWGQGTQVTVSS the binder record lists koff as 0.00031
